src = patent US20250288643A1

- TARGET_OR_SYSTEM: human CD47 (hCD47) (human, UniProt Q08722 19-139, limits assumed)
- Sequence (Q08722 19-139 limits assumed): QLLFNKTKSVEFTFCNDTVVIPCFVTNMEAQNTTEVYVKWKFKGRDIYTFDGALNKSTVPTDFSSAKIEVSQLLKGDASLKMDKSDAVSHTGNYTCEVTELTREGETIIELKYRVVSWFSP
- TEST_SUMMARY: hCD47 binding OD over expression OD
METRIC: hCD47 binding (B/E)
Reply with the value as a number alone.

Please supply the value of reported hCD47 binding (B/E) for the item 4RP13-1-2G (designed binder, tested as bacterial supernatant; also called S-5; hSIRPα-mt4 (IgV domain)) hSIRPα IgV domain mutant: EEELQVIQPDKSVSVAAGESAILRCTVTSLWPVGPIQWFRGAGPARELIYNQKAFIFPRVTTVSESTKRGNMDFSISISNITPADAGTYYCVKFRKGSPDTEFKSGAGTELSVRAKPS 2.27

Please supply the value of reported hCD47 binding (B/E) for the item 4RP13-3-11A (designed binder, tested as bacterial supernatant; also called S-2; hSIRPα-mt3 (IgV domain)) hSIRPα IgV domain mutant: EEELQVIQPDKSVSVAAGESAILHCTVTSLWPVGPIQWFRGAGPARELIYNQKAWPFPRVTTVSESTKRENMDFSISISNITPADAGTYYCVKFRKGSPDTEFKSGAGTELSVRAKPS 1.53

Please supply the value of reported hCD47 binding (B/E) for the item 4RP13-4-5C (designed binder, tested as bacterial supernatant; also called S-21; hSIRPα-mt5 (IgV domain)) hSIRPα IgV domain mutant: EEELQVIQPDKSVSVAAGESAILNCTVTSLIPVGPIQWFRGAGPARELIYNQKHQTFPRVTTVSEQTKRENRDFSISISNITPADAGTYYCVKFRKGSPDTEFKSGAGTELSVRAKPS 1.65

Please supply the value of reported hCD47 binding (B/E) for the item 4RP13-3-7B (designed binder, tested as bacterial supernatant; also called S-28; hSIRPα-mt10 (IgV domain)) hSIRPα IgV domain mutant: EEELQVIQPDKSVSVAAGESAILTCTVTSLYPVGPIQWFRGAGPARELIYNQKRQTFPRVTTVSESTKRFNMDFSISISNITPADAGTYYCVKFRKGSPDTEFKSGAGTELSVRAKPS 1.25

Please supply the value of reported hCD47 binding (B/E) for the item 4RP13-1-7A (designed binder, tested as bacterial supernatant; also called S-19; hSIRPα-mt8 (IgV domain)) hSIRPα IgV domain mutant: EEELQVIQPDKSVSVAAGESAILHCTVTSLKPVGPIQWFRGAGPARELIYNQKRDTFPRVTTVSESTKRENRDFSISISNITPADAGTYYCVKFRKGSPDTEFKSGAGTELSVRAKPS 2.44

Please supply the value of reported hCD47 binding (B/E) for the item 4RP13-3-10B (designed binder, tested as bacterial supernatant; also called S-26; hSIRPα-mt12 (IgV domain)) hSIRPα IgV domain mutant: EEELQVIQPDKSVSVAAGESAILHCTVTSLYPVGPIQWFRGAGPARELIYNQKGRRFPRVTTVSESTKRANMDFSISISNITPADAGTYYCVKFRKGSPDTEFKSGAGTELSVRAKPS 1.33
